- subject-of-test: O114933_C98 (Homo sapiens, UniProt O14933)
- Sequence (O14933 whole entry): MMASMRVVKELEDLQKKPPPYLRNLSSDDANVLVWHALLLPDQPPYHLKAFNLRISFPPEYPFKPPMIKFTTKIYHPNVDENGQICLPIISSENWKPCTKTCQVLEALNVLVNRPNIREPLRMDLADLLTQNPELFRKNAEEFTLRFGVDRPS
- assay-explanation: Competitive isoTOP-ABPP, cell lysates
- Assay type: binding
- condition-notes: 500 μm in-vitro ramos
property-label: isoTOP-ABPP ratio (reactivity profile), O114933_C98

>>> reported_measurement("O=C(/C=C/c1ccccc1)Nc1cc(C(F)(F)F)cc(C(F)(F)F)c1 [compound 26]")
1.0
>>> reported_measurement("CC(C)CCOCCNC(=O)CCl [compound 27]")
1.0
>>> reported_measurement("CCN(CC)c1ccc(S(N)(=O)=O)cc1NC(=O)CCl [compound 30]")
1.3

----------
- subject-of-test: UCHL3 C95 (P15374) (Homo sapiens, UniProt P15374)
- Sequence (P15374 whole entry): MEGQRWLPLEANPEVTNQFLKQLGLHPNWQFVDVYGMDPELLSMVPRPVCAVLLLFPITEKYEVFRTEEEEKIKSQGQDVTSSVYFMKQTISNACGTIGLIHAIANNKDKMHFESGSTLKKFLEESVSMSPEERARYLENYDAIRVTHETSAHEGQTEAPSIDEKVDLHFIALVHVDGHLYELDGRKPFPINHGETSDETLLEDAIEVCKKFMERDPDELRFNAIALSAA
- assay-explanation: Competitive isoTOP-ABPP, cell lysates
- Format: binding
- condition-notes: 500 μm, in-vitro_ramos_231
property-label: isoTOP-ABPP reactivity profile ratio, P15374_C95

>>> reported_measurement("O=C(CCl)N1CCc2cc(Br)ccc21")
1.3
>>> reported_measurement("O=C(CCl)Nc1ccc(-c2ccccc2)cc1")
1.2
>>> reported_measurement("C=CC(=O)N(c1ccccc1)C1CCCCC1")
1.0
>>> reported_measurement("O=C(CCl)NC1C(O)OC(CO)C(O)C1O (mixture of isomers)")
0.8

----------
- subject-of-test: ERCC3 C342 (P19447) (Homo sapiens)
- Sequence (P19447 1-782): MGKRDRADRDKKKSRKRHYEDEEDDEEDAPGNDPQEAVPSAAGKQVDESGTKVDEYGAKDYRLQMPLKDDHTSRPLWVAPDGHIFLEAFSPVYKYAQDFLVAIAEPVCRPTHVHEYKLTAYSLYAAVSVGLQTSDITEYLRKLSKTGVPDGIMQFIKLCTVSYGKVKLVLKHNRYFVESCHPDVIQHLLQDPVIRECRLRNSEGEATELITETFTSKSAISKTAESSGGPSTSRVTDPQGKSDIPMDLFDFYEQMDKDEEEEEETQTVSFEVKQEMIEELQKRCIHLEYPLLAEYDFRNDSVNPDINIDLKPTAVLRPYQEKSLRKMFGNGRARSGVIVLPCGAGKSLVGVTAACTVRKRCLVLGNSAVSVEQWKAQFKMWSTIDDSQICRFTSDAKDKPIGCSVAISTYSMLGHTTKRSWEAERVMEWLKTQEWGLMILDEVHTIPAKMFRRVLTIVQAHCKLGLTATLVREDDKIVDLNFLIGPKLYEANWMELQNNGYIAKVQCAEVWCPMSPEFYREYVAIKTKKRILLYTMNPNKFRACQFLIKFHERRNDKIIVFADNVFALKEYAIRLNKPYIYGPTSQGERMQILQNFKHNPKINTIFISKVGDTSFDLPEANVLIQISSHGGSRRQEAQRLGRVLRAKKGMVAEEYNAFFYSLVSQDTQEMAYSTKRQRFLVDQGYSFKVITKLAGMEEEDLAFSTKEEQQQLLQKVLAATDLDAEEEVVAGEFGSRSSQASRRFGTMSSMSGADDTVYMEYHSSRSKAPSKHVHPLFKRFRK
- assay-explanation: Competitive isoTOP-ABPP, cell lysates
- Type: binding
- condition-notes: 500 μm in-vitro ramos_231
Mark Fulfilled only for isoTOP-ABPP ratio (reactivity profile), P19447_C342 values smaller than 2; exact matches and larger values are Not fulfilled.

>>> classification("O=C(CCl)N1CCN(CC(=O)N2CCOCC2)CC1")
"Fulfilled"
>>> classification("N#C/C(=C\\c1cc(C(F)(F)F)cc(C(F)(F)F)c1)C(N)=O")
"Fulfilled"
>>> classification("O=C(CCl)NC12CC3CC(CC(C3)C1)C2")
"Not fulfilled"
>>> classification("CC(Cl)C(=O)Nc1cc(C(F)(F)F)cc(C(F)(F)F)c1 (centres unmarked)")
"Fulfilled"
>>> classification("O=C(CCl)N1CCC(C(O)(c2ccccc2)c2ccccc2)CC1")
"Not fulfilled"
